Catalogue of IC50 values
Target Or Test System: recombinant GSK3β enzyme (human GSK3β) (Homo sapiens, UniProt P49841)
Construct: FLAG (N)
Sequence (P49841 whole entry): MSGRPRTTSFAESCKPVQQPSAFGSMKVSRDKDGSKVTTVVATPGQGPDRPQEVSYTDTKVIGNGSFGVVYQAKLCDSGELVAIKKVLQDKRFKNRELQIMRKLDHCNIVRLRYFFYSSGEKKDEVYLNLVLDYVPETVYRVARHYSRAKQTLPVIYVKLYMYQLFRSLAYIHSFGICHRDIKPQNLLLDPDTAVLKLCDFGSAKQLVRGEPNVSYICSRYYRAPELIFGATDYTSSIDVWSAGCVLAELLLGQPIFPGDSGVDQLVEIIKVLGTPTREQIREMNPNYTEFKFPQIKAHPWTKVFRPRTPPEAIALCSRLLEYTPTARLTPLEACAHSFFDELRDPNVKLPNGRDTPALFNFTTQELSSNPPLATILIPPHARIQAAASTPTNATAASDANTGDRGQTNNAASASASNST
Assay Details: Measurement of GSK3β inhibitory activity
Measurement Parameters: glycogen synthase peptide substrate, Kinase Glo luminescence, read-out: IC50 (concentration of test compound needed for 50% inhibition of luminescent intensity), GSK3β inhibitory activity
Method: Human GSK3β gene was cloned by a PCR method using a primer set: […] 10 μl of ATP solution (2.5 μM ATP) was added to the obtained mixture, and the mixture was reacted at room temperature for 30 min. […] After reaction at room temperature for 10 min, the luminescent intensity was measured using ARVO multilabel counter (PerkinElmer Life Sciences). […]

These recorded examples may help you get a feel for the data.
# Smiles Record, Measure Name, Result
records = [
    ("CNC(=O)c1n[nH]cc1NC(=O)C1CCCCC1", "IC50", "307 nM"),
    ("CC(=O)Nc1cccc(C(=O)Nc2c[nH]nc2C(=O)NCCS(=O)(=O)c2ccccn2)c1", "IC50", "< 100 nM"),
]

Request: Item O=C(Nc1c[nH]nc1C(=O)NCCCc1ccccc1)c1ccccn1 has what recorded IC50?
Result: < 100 nM

Request: Item O=C(Nc1c[nH]nc1C(=O)NCc1ccco1)c1ccc2[nH]ccc2c1 has what recorded IC50?
Result: < 100 nM

Request: Item O=C(Nc1c[nH]nc1C(=O)NC1CCCC1)c1ccccn1 has what recorded IC50?
Result: < 100 nM

Request: Item O=C(Nc1c[nH]nc1C(=O)NCCc1cccnc1)c1ccccn1 has what recorded IC50?
Result: < 100 nM

Request: Item CC(C)NC(=O)c1n[nH]cc1NS(=O)(=O)C[C@]12CCC(CC1=O)C2(C)C has what recorded IC50?
Result: 109 nM

Request: Item Cc1[nH]nc(C(=O)NC2CCCC2)c1NC(=O)c1ccccc1 has what recorded IC50?
Result: 1000 nM

Request: Item O=C(CC1CCCC1)Nc1c[nH]nc1C(=O)Nc1ccccc1 has what recorded IC50?
Result: 106 nM

Request: Item COCCNC(=O)c1n[nH]cc1NC(=O)c1ccccn1 has what recorded IC50?
Result: < 100 nM

Request: Item COc1ncccc1C(=O)Nc1c[nH]nc1C(=O)NC1CCCC1 has what recorded IC50?
Result: < 100 nM

Request: Item CC(=O)Nc1cccc(C(=O)Nc2c[nH]nc2C(=O)NCCN(C)C)c1 has what recorded IC50?
Result: < 100 nM

Request: Item O=C(Nc1c[nH]nc1C(=O)NCCO)c1ccccn1 has what recorded IC50?
Result: < 100 nM

Request: Item O=C(NC1CCCC1)c1n[nH]cc1NC(=O)c1c[nH]c2ccccc12 has what recorded IC50?
Result: < 100 nM
